Recorded Sucrase Inhibition (%) values for a group of molecules are listed next.
molecular target: sucrase (Rattus norvegicus, UniProt P23739); test: α-glucosidase; type: biochemical; conditions: at the concentration of 10^—5 mol/L
Sequence (P23739 whole entry): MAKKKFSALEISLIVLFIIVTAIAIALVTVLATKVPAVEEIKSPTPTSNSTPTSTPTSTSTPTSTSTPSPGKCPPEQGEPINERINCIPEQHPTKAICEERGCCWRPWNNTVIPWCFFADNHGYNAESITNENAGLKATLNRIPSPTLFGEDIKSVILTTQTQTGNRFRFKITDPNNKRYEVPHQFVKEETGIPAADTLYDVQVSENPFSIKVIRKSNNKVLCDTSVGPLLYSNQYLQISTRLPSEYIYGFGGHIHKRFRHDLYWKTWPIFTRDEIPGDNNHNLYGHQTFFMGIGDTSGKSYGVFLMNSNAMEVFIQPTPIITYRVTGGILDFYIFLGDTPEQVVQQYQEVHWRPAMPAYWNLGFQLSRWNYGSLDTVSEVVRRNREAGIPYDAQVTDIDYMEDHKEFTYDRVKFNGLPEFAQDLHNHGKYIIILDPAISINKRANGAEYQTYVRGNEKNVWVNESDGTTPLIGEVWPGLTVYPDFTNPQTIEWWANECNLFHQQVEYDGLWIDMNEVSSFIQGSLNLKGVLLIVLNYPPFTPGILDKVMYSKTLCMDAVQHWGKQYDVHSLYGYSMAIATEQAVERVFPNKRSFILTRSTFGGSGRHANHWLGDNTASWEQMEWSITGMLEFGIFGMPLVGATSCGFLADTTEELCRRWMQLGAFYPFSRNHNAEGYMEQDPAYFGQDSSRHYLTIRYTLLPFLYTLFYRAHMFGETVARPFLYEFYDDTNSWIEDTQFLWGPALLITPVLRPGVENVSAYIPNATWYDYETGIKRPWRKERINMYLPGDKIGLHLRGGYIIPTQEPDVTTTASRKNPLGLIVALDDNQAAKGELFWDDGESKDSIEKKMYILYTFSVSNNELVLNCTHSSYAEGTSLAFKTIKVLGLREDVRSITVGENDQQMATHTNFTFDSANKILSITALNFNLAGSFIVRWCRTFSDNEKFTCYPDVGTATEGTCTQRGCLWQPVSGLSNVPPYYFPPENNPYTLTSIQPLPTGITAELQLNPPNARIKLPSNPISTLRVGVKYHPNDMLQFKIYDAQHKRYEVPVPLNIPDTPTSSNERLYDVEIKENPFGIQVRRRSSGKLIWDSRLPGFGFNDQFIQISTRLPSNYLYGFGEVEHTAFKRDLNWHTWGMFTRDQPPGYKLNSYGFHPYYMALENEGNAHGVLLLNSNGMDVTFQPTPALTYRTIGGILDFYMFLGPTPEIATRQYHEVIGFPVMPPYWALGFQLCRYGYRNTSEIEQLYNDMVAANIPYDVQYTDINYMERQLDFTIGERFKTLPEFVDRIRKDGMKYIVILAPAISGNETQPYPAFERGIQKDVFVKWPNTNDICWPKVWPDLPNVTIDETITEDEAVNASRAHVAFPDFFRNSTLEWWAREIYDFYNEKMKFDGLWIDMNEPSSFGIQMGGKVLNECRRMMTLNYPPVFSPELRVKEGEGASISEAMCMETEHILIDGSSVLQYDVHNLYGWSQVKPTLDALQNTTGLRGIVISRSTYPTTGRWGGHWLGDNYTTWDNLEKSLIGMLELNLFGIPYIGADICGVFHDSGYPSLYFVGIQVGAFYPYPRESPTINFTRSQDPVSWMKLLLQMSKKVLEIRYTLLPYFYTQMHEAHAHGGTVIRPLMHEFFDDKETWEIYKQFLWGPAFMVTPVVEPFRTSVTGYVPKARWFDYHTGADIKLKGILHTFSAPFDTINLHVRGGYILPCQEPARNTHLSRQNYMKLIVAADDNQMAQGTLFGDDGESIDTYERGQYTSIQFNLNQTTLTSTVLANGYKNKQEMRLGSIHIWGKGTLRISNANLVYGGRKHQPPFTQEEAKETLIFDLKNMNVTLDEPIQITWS

molecule | Sucrase Inhibition (%)
Oc1cc(O)c2c(c1)O[C@H](c1ccc(O)c(O)c1)[C@@H](O)C2 [Compound 4, (+)-catechin] | 21.5
O=C(/C=C/c1ccc(O)c(O)c1)O[C@@H]1Cc2c(O)cc(O)cc2O[C@@H]1c1ccc(O)c(O)c1 [Compound 3, (–)-epicatechin-3-O-(E)-caffeate] | 64.5
O=C(/C=C\c1ccc(O)cc1)O[C@@H]1Cc2c(O)cc(O)cc2O[C@@H]1c1ccc(O)c(O)c1 [Compound 1, (–)-epicatechin-3-O-(Z)-coumarate] | 45.4
O=C(/C=C/c1ccc(O)cc1)O[C@@H]1Cc2c(O)cc(O)cc2O[C@@H]1c1ccc(O)c(O)c1 [Compound 2, (–)-epicatechin-3-O-(E)-coumarate] | 71.3
